MEASUREMENT TYPE: melting point

q: Any idea what its melting point is? The compound is COC(=O)c1ccc2c(-c3ccccc3)cc(=O)oc2c1
a: 133 to 135 °C

q: Note, next up: Nc1ccccc1-c1cc2[nH]c3ccccc3c2c2c1C(=O)NC2=O
a: > 300 °C

q: Record: Cc1oc(-c2ccccc2)nc1CCOc1ccc(CC2SC(=O)NC2=O)cc1 (stereo unspecified)
a: 113 to 114 °C

q: Try CSc1ccc(-c2nn(Cc3cccnc3)c(=S)cc2-c2ccc(Cl)cc2)cc1 next.
a: 130 to 131 °C

q: What about CCn1ncc(OCc2ccc(C3CCCCC3)cc2)c(Cl)c1=O ?
a: 168 to 170 °C

q: Cool, now CCOC(=O)c1c(N2CCN(C(=O)c3cccs3)CC2)c2cc(Cl)cnc2n(Cc2ccccc2)c1=O
a: 197 °C

q: Another compound: Cc1nc(N)c2nc(CO)n(NC3CCOCC3)c2c1C
a: > 250 °C

q: Same question for Nc1cc(-n2cc(C(=O)O)c(=O)c3cc(F)c(F)c(Cl)c32)ncc1F please.
a: 280 °C

q: Same for COc1ccc([C@H](Sc2cc(Cc3ccccc3)ccc2N)[C@@H](O)C(=O)O)cc1
a: 155 to 158 °C

q: Would you kindly repeat that for CCN(CC)C(=O)CN1C(=O)C(NC(=O)Nc2ccc(Cl)cc2)N=C(c2ccccc2)c2ccccc21 (stereo unspecified) ?
a: 284 to 285 °C

q: Same read-out for COc1cccc(/C=C/c2ccc(C(=O)O)cc2)c1 ?
a: 200 to 205 °C

q: Then CN(C)Cc1cc(C(=O)c2cccs2)cc(C(C)(C)C)c1O ?
a: 132 to 134 °C

q: // repeat for COc1ccc2c(c1)OC(=O)N(C1CCCCC1)C2 and report
a: 76 to 77 °C

q: Do the same for CCNC(=O)ON=C1CCOc2ccccc21 please
a: 110 to 111 °C

q: What about this compound? Cc1nc(-c2ccccc2)nc(-c2cccc([N+](=O)[O-])c2)c1CN
a: 145 to 147 °C

q: Lookup Cc1cc(CCCCCOc2c(Cl)cc(C3=NCCO3)cc2Cl)on1
a: 42 to 43 °C

q: Do the same for CCC(=O)C1=CCC(c2c(C)c(C)c3c(c2Cl)CC(C)(C)C3)CC1=O (stereo unspecified) please
a: 74 to 75 °C

q: Repeat with CCCCCCCCC(=O)NCCc1ccc(O)cc1
a: 65.9 to 66.7 °C

q: Another compound to look at: N#CCc1ccc(Br)nc1
a: 55.5 to 57.5 °C

q: Now consider O=S(=O)(c1ccccc1)N1CCC(C(O)(c2ccc(F)cc2)C2CCCCC2)CC1 (stereo unspecified) and answer again.
a: 106 to 109 °C

q: Queued: Cc1sc(-c2ccccc2)nc1COc1ccc(COc2ncccc2CC(=O)O)cc1
a: 128 to 129 °C

* * *

MEASUREMENT TYPE: melting point

q: Name the recorded melting point for O=C(Nc1ccc(NCc2ccccc2)cc1)C(=O)N1CCC(Cc2ccccc2)CC1 .
a: 126 to 128 °C

q: One more molecule: CC(C)S(=O)(=O)c1cc(C#N)c(N)c(OCCCS(C)(=O)=O)c1
a: 142 to 143 °C

q: Can you handle CC1CCCCC1C(=O)Nc1ccc(-c2cnc(-c3ccc(NC(=O)c4cccnc4)cc3)[nH]2)cc1 (stereo not given) next?
a: 226 to 228 °C

q: Moving on to COc1ccc(C2=C(/C=C/C(=O)O)CCc3cc(OC)ccc32)cc1
a: 222 to 224 °C

q: And CCCCc1oc2ccc(N)cc2c1C(=O)c1ccc(OCCCO)cc1 ?
a: 86 to 90 °C

* * *

Assign melting point to each entry below.

q: Name the reported melting point value associated with the molecule O=C(OCc1ccccc1)c1cc2c(=O)n(Cc3ccccc3)c(=O)[nH]c2s1
a: 195 to 197 °C

q: Also C=CCOc1ccc(OC)cc1C(=O)c1oc2ccc(Cl)cc2c1N ?
a: 115 to 116 °C

q: Try this molecule next: CC(C)(C)C(NC(=O)c1ccc(Cl)cc1)NC(=NC#N)NCc1ccccc1Cl (stereo not given)
a: 180 to 182 °C

q: What about this molecule? COC(=O)c1cscc1NC(=O)COc1ccc(-c2ccc(F)cc2)cc1
a: 127 to 130 °C

q: Same again, this time with CN(Cc1ccc(NC(=O)C2=Cc3cc(-c4ccc(Cl)cc4)ccc3S(=O)(=O)CC2)cc1)C1CCOCC1
a: 247 to 250 °C

* * *

Answer each item with its documented melting point.

q: What does the record list as melting point for O=C(O)CCc1cc(OCCCc2cn(-c3ccc(C(F)(F)F)cn3)nc2C2CCCCC2)nn1-c1ccccc1 ?
a: 182 to 183 °C

q: // query: CC(C)c1c(C(=O)Nc2ccccc2)c(-c2ccccc2)c(-c2ccc(F)cc2)n1CCC(O)CC(O)CC(=O)N(c1ccccc1)c1ccccc1 (stereo not given)
a: 228 to 233 °C

q: Next: COc1ccc(NC(=O)N2CCCC2=O)cc1
a: 113 to 114 °C

q: Subsequent entry: Cc1noc(NS(=O)(=O)c2ccccc2-c2ccc(Cn3c(=O)oc4ccccc43)cc2)c1C
a: 182 to 183 °C

q: # repeat for O=C(O)CNC(=O)C(CSC(=O)c1ccccc1)SC(=O)c1ccccc1 (stereo not given)
a: 160 to 163 °C

q: Moving on to the next molecule: O=C1c2ccccc2C(=O)c2sc(-c3ccoc3)nc21
a: 245 °C

q: Please answer likewise for CC(=O)c1ccc(C(C)=O)s1
a: 171 to 173 °C

q: Another molecule to check: CC(C)N1CC[C@@H](Oc2ccc(-n3ccc(OCc4ccc(Cl)cn4)cc3=O)cc2)C1
a: 154 to 155 °C

q: Same question for CSc1nc2ccc(Br)cc2c(=O)[nH]1 please.
a: 230 °C

q: Param item: O=C(NCCCCCCCNC(=O)c1ccc(OC(F)(F)C(F)Cl)cc1)c1ccc(OC(F)(F)C(F)Cl)cc1 (stereo not given)
a: 153 to 154 °C

q: Then this molecule: CC1(C)CC(=C(c2ccc(O)cc2)c2ccc(C(N)=O)cc2)CC(C)(C)C1
a: 209 to 210 °C

q: Next: O=C1c2ccccc2C(=O)N1CC1Cc2ccc3c(c2O1)CCC3 (stereo not given)
a: 131 to 135 °C

q: # repeat for O=C(Oc1ccccc1)OC1C2=C(SCCS2)C(=O)N1c1ccc(Cl)cn1 (stereo not given)
a: 178 °C

q: CC(C)N1C(=O)NC(c2ccc3c(c2)CCC3)c2cc3c(cc21)OCO3 (stereo not given) ?
a: 146 to 148 °C

q: Okay, and C#CCCN1CC=C(c2ccccc2)CC1 ?
a: 36.5 to 37.5 °C

q: Lookup CCCn1cc2c(C3C(=O)Nc4ccc(Br)cc43)nc(NCCc3cccnc3)nc2n1 (stereo not given)
a: 294 to 297 °C

q: Again, but for CC(C)(C)NC(=O)[C@@H]1CC(=O)CN1C(=O)OC(C)(C)C
a: 147 to 149 °C

q: // next record CC(=O)Nc1cccc(C)c1C(=O)O
a: 189 to 190 °C

q: What about O=[N+]([O-])c1ccccc1Oc1ccc(Cl)cc1 ?
a: 33 to 35 °C

q: Same again, this time with CC[C@H](C)[C@H](NC(=O)N(C)Cc1ccccn1)C(=O)N[C@@H](Cc1ccccc1)C[C@H](O)[C@H](Cc1ccccc1)NC(=O)OCc1cncs1
a: 64 to 67 °C

* * *

MEASUREMENT TYPE: melting point

q: For the compound shown here, O=C(OCc1ccccc1)N1CCN2c3ccc([N+](=O)[O-])cc3OCC2C1 (configuration not stated) , give the reported melting point.
a: 138 to 140 °C

q: What do you get for CC(C)(C#N)C(O)(CCc1ccc(F)cc1)Cn1cncn1 (configuration not stated) ?
a: 152 to 154 °C

q: # repeat for CCCCOc1cc(CCS(=O)(=O)NC(=O)OCCC)n(Cc2ccc(Cl)cc2Cl)n1
a: 92 to 94 °C

q: Also need O=C(O)CCSc1nnc(S)s1 , thanks.
a: 105 to 108 °C

q: Moving on to the next compound: CCOC(=O)Cc1c(Cl)nc(-c2ccccc2)n1Cc1ccccc1
a: 72 to 73 °C

q: Also need O=C(O)c1ccc(NC(=O)N(Cc2ccccc2)Cc2ccccc2)cc1 , thanks.
a: 210 to 214 °C

q: Another: O=C(O)CCCCCN(C(=O)c1ccc(Cl)cc1Cl)c1ccccc1-c1ccccc1
a: 112 to 113 °C

q: And then Cc1ccnc(C(=O)c2[nH]c3cc(Cl)ccc3c2N)c1 , what is it?
a: 195 to 196 °C

q: # iterate: CCCc1[nH]c(C(=O)OCC)c(CC)c1C
a: 58 to 59.5 °C

q: Now the same for O=C1NC2CCCC1NC2=O
a: 280 to 283 °C

q: Then this compound: CCOC(=O)c1c(CBr)n(C)c2cc(Br)c(OC(C)=O)cc12
a: 179 to 180 °C

q: Another compound to look at: NC(=O)N(O)CCOCc1ccoc1
a: 99 to 101 °C

q: Now this one: COC(=O)c1cc(N)c(Oc2ccccc2)c(N2C(=O)CCC2=O)c1
a: 199 to 200 °C

q: Also COc1ccc(C2=NN(CCc3ccccc3)C(=O)[C@H]3CCCC[C@@H]23)cc1OC (relative stereo) , if possible.
a: 99 to 100 °C

q: // repeat for CC[C@@H](NC(=O)N1CC(=O)NCC(Cc2cc(Cl)ccc2OC)C1=O)C(=O)Nc1ccc(C)c(C(=O)O)c1 (some centres not stated) and report
a: 132 to 134 °C

q: Please answer likewise for OCc1c(F)cc(O)cc1Cl
a: 125 to 127 °C

q: Next record, please: CCCCCCCCCC(C)(C)c1cc(C(=O)O)ccc1OC
a: 112 °C

q: Check COC(=O)C(C)Nc1c(C)csc1C (configuration not stated) too.
a: 33 to 34 °C

q: Proceed to O=C(CCN1CCN(c2cccc(Cl)c2)CC1)N1CC2CC3CC(C2)CC1C3
a: 110 to 112 °C

q: What about OC(CCC1CCNCC1)c1cc(-c2ccccc2)nc2ccccc12 (configuration not stated) ?
a: 162 °C

q: How about this compound: O[C@@H](COc1cccc(-c2noc3ccsc23)c1)CN1CCN(c2n[nH]c3cc(F)ccc23)CC1
a: 97 to 99 °C

q: Ok, now Cc1c(C(=O)O)ccc2c1C(O)CCS2(=O)=O (configuration not stated)
a: 172 to 173 °C
